Test: Metabolic stability in human hepatic microsome
Assay type: in vitro ADME
Details: microsomes, pH 7.4; human hepatic microsome, NADPH(+); read-out: CL NADPH(+)
Starred links: 1 amine or outer side, 2 acyl side, 3 side chain; linkers in the order of their positions; H or OH if unused. Positions of bridges follow the written chain, without caps; N, C: chain ends. Non-standard residues stand in square brackets, D forms with d. Residues, ends and D or L forms follow the SMILES beside them. *: point of attachment. Phe(3-(CH2)4CO) = O=C([C@H](Cc1cccc(CCCCC(=O)[*:3])c1)N[*:1])[*:2]; NMeF = CN[C@@H](Cc1ccccc1)C(=O)O; NMeβAla = CN(CCC(=O)[*:2])[*:1]; AllylGly = C=CC[C@H](N)C(=O)O; NMeL = CN[C@@H](CC(C)C)C(=O)O; NMeA = CN[C@@H](C)C(=O)O; Piperidide = C1CCN(*)CC1; Sar = CNCC(=O)O
Each entry below carries its reported microsomal CLint at 1 uM.
Please state the figure in µL/min/mg; there is no need to write the unit.

CC[C@H](C)[C@@H]1NC(=O)[C@H](Cc2ccccc2)NC(=O)CCCCc2cccc(c2)C[C@@H](C(=O)N2CCCCC2)NC(=O)[C@H](CC(C)C)NC(=O)[C@H](CC(C)C)NC(=O)[C@H](C(C)C)NC(=O)[C@H](C)N(C)C(=O)[C@H](Cc2ccccc2)NC(=O)CNC(=O)[C@H]([C@@H](C)O)NC(=O)[C@H](CC(C)C)NC(=O)[C@@H]2CCCN2C1=O [DP-903] (FIPLTGF[NMeA]VLL[Phe(3-(CH2)4CO)]-Piperidide; lactam N-12) :: 26
C=CC[C@@H]1NC(=O)[C@H](Cc2ccccc2)N(C)C(=O)[C@H]([C@@H](C)O)NC(=O)[C@H](CC(C)C)N(C)C(=O)[C@H](Cc2ccccc2)NC(=O)[C@H](C)NC(=O)C[C@@H](C(=O)N(C)[C@@H](Cc2ccccc2)C(=O)N[C@@H](C)C(=O)N2CCCCC2)NC(=O)[C@H](CC(C)C)NC(=O)[C@H](CC(C)C)N(C)C(=O)[C@H](C)N(C)C1=O [DP-612] (AF[NMeL]T[NMeF][AllylGly][NMeA][NMeL]LD[NMeF]A-Piperidide; lactam N-10) :: 155
C=C1CCC(=O)N(C)[C@@H](Cc2ccccc2)C(=O)N(C)[C@@H](CC(C)C)C(=O)N[C@@H]([C@@H](C)CC)C(=O)N(C)[C@@H](C)C(=O)N(C)[C@@H](Cc2ccccc2)C(=O)N[C@@H]([C@@H](C)O)C(=O)N(C)[C@@H](C)C(=O)N(C)[C@@H](CC(C)C)C(=O)N[C@H](C(=O)N2CCCCC2)Cc2ccc1cc2 :: 427
CC[C@H](C)[C@@H]1NC(=O)[C@H](C)N(C)C(=O)CCN(C)C(=O)C[C@@H](C(=O)N2CCCCC2)NC(=O)[C@H](CC(C)C)N(C)C(=O)[C@H](CC(C)C)N(C)C(=O)[C@H](C)N(C)C(=O)[C@H]([C@@H](C)O)NC(=O)[C@H](Cc2ccccc2)N(C)C(=O)[C@H](Cc2ccccc2)N(C)C1=O [DP-140] ([NMeβAla][NMeA]I[NMeF][NMeF]T[NMeA][NMeL][NMeL]D-Piperidide; lactam N-10) :: 96

Here is the next item to consider.
Query: Return reported microsomal CLint at 1 uM; argument: CC[C@H](C)[C@@H]1NC(=O)[C@H](CC(C)C)N(C)C(=O)CN(C)C(=O)[C@H]([C@@H](C)O)NC(=O)[C@H](C)N(C)C(=O)C[C@@H](C(=O)N[C@@H](C)C(=O)N2CCCCC2)NC(=O)[C@H](CC(C)C)N(C)C(=O)[C@H](Cc2ccccc2)N(C)C(=O)[C@H](CC(C)C)N(C)C1=O [DP-664] ([NMeA]T[Sar][NMeL]I[NMeL][NMeF][NMeL]DA-Piperidide; lactam N-9)
Response: 304
